Target: T1, CRF2R
T1 sequence (Q13324 whole entry, species assumed, looked up): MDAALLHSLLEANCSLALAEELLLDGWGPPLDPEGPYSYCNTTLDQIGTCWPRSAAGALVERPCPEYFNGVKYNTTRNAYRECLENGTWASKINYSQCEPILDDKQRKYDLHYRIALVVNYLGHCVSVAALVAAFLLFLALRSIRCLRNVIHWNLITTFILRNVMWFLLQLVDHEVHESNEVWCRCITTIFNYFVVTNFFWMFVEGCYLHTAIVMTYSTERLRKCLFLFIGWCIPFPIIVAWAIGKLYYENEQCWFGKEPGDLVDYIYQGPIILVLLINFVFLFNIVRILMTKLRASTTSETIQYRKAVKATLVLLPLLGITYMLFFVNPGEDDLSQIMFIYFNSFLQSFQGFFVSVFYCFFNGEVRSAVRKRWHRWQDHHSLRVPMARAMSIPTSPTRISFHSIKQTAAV
Assay: cell-based or functional assay
Ends that are not written are not given here.
Each entry below carries its recorded CRF2R EC50.
Quick note: give the figure in nM, leave out the unit.

Below are worked cases with known answers.
[[record]]
binder = "ZGPPISIDLPFFLLRKVIEIEKQEKEKQQAANNALLLDTI (C-terminal amide) [SEQ ID NO 316]"
endpoint_unit = "nM"
reported = 10.2

[[record]]
binder = "ZGPPISIDLPFQLLRKMIEIEKQEKEKQQAANNRLLLATI (not fully specified; C-terminal amide) [SEQ ID NO 250]"
endpoint_unit = "nM"
reported = 19.7

[[record]]
binder = "ZGPPISIDLPIALLRKMIEIEKQEKEKQQAANNRLLLDTI (C-terminal amide) [SEQ ID NO 306]"
endpoint_unit = "nM"
reported = 27.6


What does the record list as CRF2R EC50 for ZGPPISIDLPQILLRKVIEIEKQEKEKQQAANNARLLARI (C-terminal amide) [SEQ ID NO 294] ? 100

Reported CRF2R EC50, binder NDDPPISIDLPLQLLRNMIEMARIENEREQAGLNAKYLAEV-NH2 [SEQ ID NO 270] : ____ 100

I am curious: what CRF2R EC50 value has been reported for ZGPPISIDLPIFLLRKVIEIEKQEKEKQQAANNALLLATI (not fully specified; C-terminal amide) [SEQ ID NO 280] ? 100
